System: IGR37-XP cells (Vemurafenib-resistant)
assay.method.text: Kinase inhibitor library screening, PrestoBlue cell viability, 1 or 10 μM, 72 h
experimental.parameters: IGR37 XP, 1μΜ; in %
property.label: cell viability (kinase inhibitor library screening)
Give your answer as a number; write no unit.

> print(dat)
                                   compound  reported.value
1  COC(=O)c1ccc2c(c1)NC(=O)/C2=C(\Nc1ccc(N(C)C(=O)CN2CCN(C)CC2)cc1)c1ccccc1 [BIBF1120 (Vargatef)]           100.3
2  CCCNC(=O)Nc1ccc(Oc2ncnc3cc(OC)c(OC)cc23)cc1Cl [KRN 633]            98.3
3  CN1CCN(CCOc2cc(OC3CCOCC3)c3c(Nc4c(Cl)ccc5c4OCO5)ncnc3c2)CC1 [Saracatinib (AZD0530)]            97.3

Let us examine a further case.
Value of cell viability (kinase inhibitor library screening) reported for the compound COc1cc2c(Oc3ccc4[nH]c(C)cc4c3F)ncnc2cc1OCCCN1CCCC1 [Cediranib (AZD2171)] is 97.7

###

Test system: A375-GP cells (Dabrafenib-resistant)
assay.method.text: Kinase inhibitor library screening, PrestoBlue cell viability, 1 or 10 μM, 72 h
experimental.parameters: A375 GP, 10μΜ, 72 h; in %
cell viability, A375 GP, 10μΜ values by entry
Respond using a number only.

Use these answered entries as a reference point.
compound	property.label	reported.value
CC(C)(C)c1cc(/C=C(\C#N)C(N)=S)cc(C(C)(C)C)c1O	cell viability, A375 GP, 10μΜ	19.7
CCOc1cc2ncc(C#N)c(Nc3ccc(F)c(Cl)c3)c2cc1NC(=O)/C=C/CN(C)C [Pelitinib (EKB-569)]	cell viability, A375 GP, 10μΜ	88.7
CS(=O)(=O)CCNCc1ccc(-c2ccc3ncnc(Nc4ccc(OCc5cccc(F)c5)c(Cl)c4)c3c2)o1.Cc1ccc(S(=O)(=O)O)cc1.Cc1ccc(S(=O)(=O)O)cc1 [Lapatinib Ditosylate (Tykerb)]	cell viability, A375 GP, 10μΜ	81.7
CN1CCN(c2ccc3nc(-c4c(N)c5c(F)cccc5[nH]c4=O)[nH]c3c2)CC1	cell viability, A375 GP, 10μΜ	42.2

Next item in the queue.
For O=C(NOCC(O)CO)c1cc(Br)c(F)c(F)c1Nc1ccc(I)cc1F (centres unmarked) the compound record lists cell viability, A375 GP, 10μΜ as 15.6

###

Tested on: 501Mel-GP cells (Dabrafenib-resistant)
assay.method.text: Kinase inhibitor library screening, PrestoBlue cell viability, 1 or 10 μM, 72 h
experimental.parameters: 501Mel GP, 10μΜ, 72 h
Method: After 72 h of treatment, cell viability was assessed using the PrestoBlue Cell Viability Reagent (ThermoFisher Scientific). Measurements were performed with the CLARIOstar Monochromator microplate reader (BMG Labtech). Kinase inhibitor library screening. […] Drugs were added at 2 different concentrations, 1 and 10 μM, for 72 h and cell viability was assessed using the PrestoBlue Cell Viability assay. […] Each cell line was analyzed at least in duplicate. […]
Entries and their cell viability (kinase inhibitor library screening)
Write down the numeric answer in % and omit the unit.

> print(dat)
                                   molecule  reported.value
1  OCCn1cc(-c2cnc3nnn(Cc4ccc5ncccc5c4)c3n2)cn1 [PF-04217903]            82.3
2  Cc1cc(Nc2cc(N3CCN(C)CC3)nc(Sc3ccc(NC(=O)C4CC4)cc3)n2)n[nH]1 [VX-680 (MK-0457, Tozasertib)]            48.3
3  CCN(CCO)CCCOc1ccc2c(Nc3cc(CC(=O)Nc4cccc(F)c4)[nH]n3)ncnc2c1 [Barasertib (AZD1152-HQPA)]            86.2

Entry CC(C)CC(=O)Nc1[nH]nc2c1CN(C(=O)C1CCN(C)CC1)C2(C)C [PHA-793887, reference compound] ; cell viability (kinase inhibitor library screening) = 25.0

Value of cell viability (kinase inhibitor library screening) reported for the molecule CCN1CCN(C(=O)Cc2ccc(Nc3ncc(F)c(Nc4ccc(C(=O)Nc5ccccc5Cl)cc4)n3)cc2)CC1 [Aurora A Inhibitor I] is 29.4

Just so you know, measured cell viability (kinase inhibitor library screening) for CC(=O)c1c(C)c2cnc(Nc3ccc(N4CCNCC4)cn3)nc2n(C2CCCC2)c1=O.Cl [PD 0332991 (Palbociclib) HCl] came out at 66.3

// Cn1cc(-c2ccc3nnc(Sc4ccc5ncccc5c4)n3n2)cn1 [SGX-523] : cell viability (kinase inhibitor library screening) value = 64.3

Lab note: O=C(Nc1c[nH]nc1-c1nc2ccc(CN3CCOCC3)cc2[nH]1)NC1CC1 [AT9283] gave cell viability (kinase inhibitor library screening) of 0.469

Measured cell viability (kinase inhibitor library screening) of CNC(=O)c1nn(C)c2c1C(C)(C)Cc1cnc(Nc3ccc(N4CCN(C)CC4)cc3)nc1-2 [PHA-848125] : 28.1

What the record says about S=C(NCc1ccc2c(c1)OCO2)N1CCN(c2ncnc3c2oc2ccccc23)CC1 [Amuvatinib (MP-470)] : cell viability (kinase inhibitor library screening) is 86.9

What the record says about CCc1cnn2c(NCc3ccc[n+]([O-])c3)cc(N3CCCC[C@H]3CCO)nc12 [Dinaciclib (SCH727965)] : cell viability (kinase inhibitor library screening) is 0.422

// cell viability (kinase inhibitor library screening) lookup, molecule = O=C(O)[C@]1(Cc2cccc(Nc3nccs3)n2)CC[C@@H](Oc2cccc(Cl)c2F)CC1 [MK-5108 (VX-689)] , result: 63.6

Kindly note the recorded cell viability (kinase inhibitor library screening) for CCS(=O)(=O)c1cccc(-c2cc(C(=O)NC3CCN(C)CC3)c(C)c3[nH]c4ncc(C)cc4c23)c1 [TAK-901, reference compound] , which is 29.0

Reported cell viability (kinase inhibitor library screening) of CNC(=O)c1cc(Oc2ccc(NC(=O)Nc3cc(C(C)(C)C)nn3-c3ccc4ncccc4c3)c(F)c2)ccn1 [DCC-2036 (Rebastinib)] : 2.0

Noted for CN1CCN(C2CCN(C(=O)Nc3cc(Oc4ccc(NC(=O)C5(C(=O)Nc6ccc(F)cc6)CC5)c(F)c4)ccn3)CC2)CC1 [Golvatinib (E7050)] : its cell viability (kinase inhibitor library screening) reads -0.26

Measured cell viability (kinase inhibitor library screening) of Cn1cc(-c2ccc3nnc(C(F)(F)c4ccc5ncccc5c4)n3n2)cn1 [JNJ-38877605] : 64.7

###

Some compounds, each annotated with its measured cell viability, 501Mel XP, 1μΜ.
Test system: 501Mel-XP cells (Vemurafenib-resistant)
assay.method.text: Kinase inhibitor library screening, PrestoBlue cell viability, 1 or 10 μM, 72 h
experimental.parameters: 501Mel XP; 1μΜ; 72 h; in %
Respond with the number and no other words.

Entry Cc1c(NC(=O)OC[C@@H]2COCCN2)cn2ncnc(Nc3ccc4c(cnn4Cc4cccc(F)c4)c3)c12 [BMS-599626 (AC480)] : cell viability, 501Mel XP, 1μΜ on 501Mel-XP cells (Vemurafenib-resistant) = 93.0

###

Tested on: IGR37 cells (parental)
assay.method.text: Kinase inhibitor library screening, PrestoBlue cell viability, 1 or 10 μM, 72 h
experimental.parameters: IGR37 Parental; 1μΜ; 72 h; in %
Let's look at some compounds and their measured Cell viability in kinase inhibitor library screening, IGR37 Parental, 1μΜ.
The answer should be written as a number, with no unit following it.

A selection of reference data follows.
> print(dat)
                                   compound  reported.value
1  Cc1ccccc1-n1c(Cn2cnc3c(N)ncnc32)nc2cccc(C)c2c1=O            97.2
2  FC(F)c1nc2ccccc2n1-c1nc(N2CCOCC2)nc(N2CCOCC2)n1            77.8
3                        Cn1cnc(N)c2ncnc1-2           108.7
4  Cc1ccc(NC(=O)c2cccc(C(C)(C)C#N)c2)cc1Nc1ccc2ncn(C)c(=O)c2c1            45.5
5  O=C(NCCCNc1nc(Nc2cccc(NC(=O)N3CCCC3)c2)ncc1I)c1cccs1            97.9

The compound Nc1ccc(-c2ccc3ncc4ccc(=O)n(-c5cccc(C(F)(F)F)c5)c4c3c2)cn1 showed Cell viability in kinase inhibitor library screening, IGR37 Parental, 1μΜ equal to 13.2

Briefly, Cell viability in kinase inhibitor library screening, IGR37 Parental, 1μΜ measured for CCCS(=O)(=O)Nc1ccc(F)c(C(=O)c2c[nH]c3ncc(-c4ccc(Cl)cc4)cc23)c1F : 43.2

Reported Cell viability in kinase inhibitor library screening, IGR37 Parental, 1μΜ of CN(C)C1CCN(C(=O)c2ccc(NC(=O)Nc3ccc(-c4nc(N5CCOCC5)nc(N5CCOCC5)n4)cc3)cc2)CC1 : 35.0

// Cell viability in kinase inhibitor library screening, IGR37 Parental, 1μΜ value for Nc1ccc(C(=O)Nc2cccc(-c3nc(N4CCOCC4)c4oc5ncccc5c4n3)c2)cn1 : 90.0

compound c1cncc(CN2CCC(n3ncc4c(N5CCOCC5)nc(-c5ccc6[nH]ccc6c5)nc43)CC2)c1 , Cell viability in kinase inhibitor library screening, IGR37 Parental, 1μΜ observed: 93.5

Recorded result, COC[C@H]1OC(=O)c2coc3c2[C@@]1(C)C1=C(C3=O)[C@@H]2CCC(=O)[C@@]2(C)C[C@H]1OC(C)=O , Cell viability in kinase inhibitor library screening, IGR37 Parental, 1μΜ: 99.5

Entry CC[C@@H]1C(=O)N(C)c2cnc(Nc3ccc(C(=O)NC4CCN(C)CC4)cc3OC)nc2N1C1CCCC1 ; Cell viability in kinase inhibitor library screening, IGR37 Parental, 1μΜ = 71.6

Reported Cell viability in kinase inhibitor library screening, IGR37 Parental, 1μΜ ( OCCn1cc(-c2ccc3c(c2)CC/C3=N\O)c(-c2ccncc2)n1 ) = 66.4

Measured Cell viability in kinase inhibitor library screening, IGR37 Parental, 1μΜ, COc1ccc(-c2ccc3c(N4CCOC[C@@H]4C)nc(N4CCOC[C@@H]4C)nc3n2)cc1CO : 29.8

Cell viability in kinase inhibitor library screening, IGR37 Parental, 1μΜ reading for Cc1ccc(F)c(NC(=O)Nc2ccc(-c3cccc4[nH]nc(N)c34)cc2)c1 : 99.9
